- Target under test: human recombinant OX2 (hOX2) receptors expressed in CHO cells (Homo sapiens)
- Sequence (O43614 whole entry): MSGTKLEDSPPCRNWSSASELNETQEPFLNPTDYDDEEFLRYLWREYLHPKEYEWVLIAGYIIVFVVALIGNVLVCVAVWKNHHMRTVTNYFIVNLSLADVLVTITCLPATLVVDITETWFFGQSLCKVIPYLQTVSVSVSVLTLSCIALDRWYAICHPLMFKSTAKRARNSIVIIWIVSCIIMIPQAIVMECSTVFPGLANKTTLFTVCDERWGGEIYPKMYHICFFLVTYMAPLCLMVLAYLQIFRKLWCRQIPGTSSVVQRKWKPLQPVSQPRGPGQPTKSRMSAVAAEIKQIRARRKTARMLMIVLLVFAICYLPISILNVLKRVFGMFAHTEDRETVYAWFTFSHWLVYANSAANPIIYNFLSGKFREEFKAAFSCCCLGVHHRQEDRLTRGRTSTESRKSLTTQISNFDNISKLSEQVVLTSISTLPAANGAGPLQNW
- Experimental protocol: IP-1 accumulation assay (IP-One HTRF) in hOX2-CHO cells
- Condition details: 60 min incubation at 37° C., mean of at least two independent experiments, read-out: EC50_OX2R Category
pEC50: −log10 of the molar value.
The entries below come with measured pEC50 values attached.

Compound: O=C1COC[C@]2(CCCN3C(=O)CCOc4c(F)cccc4[C@H]4CC[C@H](CC4)OC[C@@H]32)N1 (single isomer, unassigned) [Example 48b]
Target under test: human recombinant OX2 (hOX2) receptors expressed in CHO cells (Homo sapiens)
pEC50: > 7.00
--
Compound: O=C1COC[C@@]2(CCCN3C(=O)CCOc4c(F)cc(F)cc4[C@H]4CC[C@H](CC4)OC[C@H]32)N1 (single isomer, unassigned) [Example 50a]
Target under test: human recombinant OX2 (hOX2) receptors expressed in CHO cells (Homo sapiens)
pEC50: > 7.00

Consider the additional compound presented here.
Quick note, pEC50 for O=C1CCC[C@]2(CCCN3C(=O)COc4ccccc4[C@H]4CC[C@H](CC4)OC[C@@H]32)N1 (single isomer, unassigned) [Example 58b] landed at < 5.00

* * *

- Target under test: human recombinant OX2 (hOX2) receptors expressed in CHO cells (Homo sapiens)
- Experimental protocol: IP-1 accumulation assay (IP-One HTRF) in hOX2-CHO cells
- Condition details: 60 min incubation at 37° C., mean of at least two independent experiments, read-out: EC50_OX2R Category
pEC50: −log10 of the molar value.
pEC50 by entry:

Below, each entry is followed by its recorded pEC50 result.
Molecule: C[C@@H]1C[C@@]2(COCC(=O)N2)[C@@H]2CO[C@H]3CC[C@H](CC3)c3ccccc3OCC(=O)N12 [Example 12a]
Target under test: human recombinant OX2 (hOX2) receptors expressed in CHO cells (Homo sapiens)
pEC50: > 7.00
//
Molecule: O=C1COC[C@]2(CCCN3C(=O)C4(CC4)COc4cccc(F)c4[C@H]4CC[C@H](CC4)OC[C@@H]32)N1 (single isomer, unassigned) [Example 72a]
Target under test: human recombinant OX2 (hOX2) receptors expressed in CHO cells (Homo sapiens)
pEC50: 5.00 to 6.00
//
Molecule: O=C1N[C@@]2(CCCN3C(=O)COc4ccccc4[C@H]4CC[C@H](CC4)OC[C@@H]32)CO1 (single isomer, unassigned) [Example 67b]
Target under test: human recombinant OX2 (hOX2) receptors expressed in CHO cells (Homo sapiens)
pEC50: < 5.00

--- query ---
# pEC50 (molecule: O=C1COC[C@]2(CCCN3C(=O)CCCCOc4cccc(n4)[C@H]4CC[C@H](CC4)OC[C@@H]32)N1 (single isomer, unassigned) [Example 76a] ) is < 5.00

* * *

- Target under test: human recombinant OX2 (hOX2) receptors expressed in CHO cells (Homo sapiens)
- Experimental protocol: IP-1 accumulation assay (IP-One HTRF) in hOX2-CHO cells
- Condition details: 60 min incubation at 37° C., mean of at least two independent experiments, read-out: EC50_OX2R Category
- Protocol: The accumulation of Inositol-1 Monophosphate (IP-1) was measured using IP-One HTRF® Terbium cryptate based assay (Cisbio) in human recombinant OX1 (hOX1) and at OX2 (hOX2) receptors expressed in CHO cells (DiscoverX) according to the manufacturer's instructions for cells tested in suspension. […] The IP-1 accumulation response was expressed as percentage of the maximal OX-A response. […]
Assay readout: EC50

For record O=C1N[C@]2(CCCN3C(=O)COc4ccccc4[C@H]4CC[C@H](CC4)OC[C@H]32)CO1 (single isomer, unassigned) [Example 67a] the listed EC50 is < 100 nM

Value of EC50 reported for the compound O=C1CCC2(CCCN3C(=O)COc4ccccc4[C@H]4CC[C@H](CC4)OCC32)N1 (mixture of isomers) is 100 to 1000 nM

Lab note: measured EC50 of O=C1COc2ccccc2[C@H]2CC[C@H](CC2)OC[C@@H]2N1CCC[C@@]21CO[C@](F)(C(F)(F)F)C(=O)N1 (relative stereo) [Example 71a] was < 100 nM

The reported EC50 of the compound O=C1COC[C@]2(CCCN3C(=O)COc4ccccc4[C@H]4CC[C@H](CC4)OC[C@@H]32)N1 (single isomer, unassigned) [Example 32b] was > 10000 nM

Note to self: EC50 recorded for O=C1COc2ccccc2[C@H]2CC[C@H](CC2)OCC2N1CCCC21COC(C(F)(F)F)N1 (mixture of isomers) was 100 to 1000 nM

Briefly, EC50 measured for O=C1COCC2(CCN3C(=O)CCOc4ccccc4[C@H]4CC[C@H](CC4)OCC32)N1 (mixture of isomers) : < 100 nM

// field: EC50; key: C[C@H]1CC(=O)N2CC[C@@]3(COCC(=O)N3)[C@@H]2CO[C@H]2CC[C@H](CC2)c2ccccc2O1 (single isomer, unassigned) ; value = 100 to 1000 nM

Just for reference, patent US20250320227A1 is where these values come from.
